- test-target: di-Zn-NDM-1 (Klebsiella pneumoniae)
- Sequence (C7C422 36-270): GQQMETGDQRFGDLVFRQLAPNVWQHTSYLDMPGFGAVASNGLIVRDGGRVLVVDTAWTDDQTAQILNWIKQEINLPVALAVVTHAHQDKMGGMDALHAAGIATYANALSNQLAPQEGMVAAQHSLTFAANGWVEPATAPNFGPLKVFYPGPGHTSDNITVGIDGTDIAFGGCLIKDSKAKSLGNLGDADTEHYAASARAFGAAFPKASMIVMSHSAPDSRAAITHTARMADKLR
- assay-protocol: 1H-15N TROSY-HSQC and 19F NMR titration of di-Zn-NDM-1 with inhibitors
- Type: binding
- condition-info: di-Zn-NDM-1, 298 K
endpoint-label: changes of 1H-15N TROSY-HSQC / 19F spectra upon titration

- O=C(O)c1cccc(C(=O)O)n1: significant changes
- c1cnc2c(c1)ccc1cccnc12: significant changes
